System: MCF-7 (Breast) doxorubicin resistant cancer cells
Assay details: MTT cytotoxicity assay, MCF-7 doxorubicin resistant
Format: cell-based, human
Condition context: Homo sapiens, MCF7, 72 h, read-out: IC50 MCF-7 (Breast) (Doxorubicin resistant)
Experimental endpoint: pIC50
FYI, pIC50 means -log10 of a concentration in mol per litre.

Input line: May I ask what pIC50 has been recorded for `CC1=C(O)C(=O)C=C2C1=CC=C1[C@@]2(C)CC[C@@]2(C)[C@@H]3C[C@](C)(C(=O)O)CC[C@]3(C)CC[C@]12C` ?
Output line: 6.02
